- System: T-47D breast
- Procedure summary: NCI tumour cell line growth inhibition, 48 h
Measurement type: TGI (µM)
Give your result in µM as a bare value.

>  <Compound>
Cn1c(=O)c2c(nc3n(Cc4ccccc4)c(=O)c(NCCBr)cn23)n(C)c1=O

>  <Measurement type>
TGI

>  <Units label>
µM

>  <Numeric result>
52.9

$$$$
>  <Compound>
CCOC(=O)C(=Cc1ccccc1[N+](=O)[O-])C(=O)OCC

>  <Measurement type>
TGI

>  <Units label>
µM

>  <Numeric result>
17.5

$$$$
>  <Compound>
O=C1CSC(/C(=C\c2ccc(Cl)cc2)c2nc3ccccc3[nH]2)=N1

>  <Measurement type>
TGI

>  <Units label>
µM

>  <Numeric result>
31.7

$$$$
>  <Compound>
CC(=O)[C@@H]1CCC=C2CC[C@]3(C)[C@@H](CC[C@@H]4[C@@]5(C)CCCNC(C)(C)[C@@H]5CC[C@]43C)[C@H]21

>  <Measurement type>
TGI

>  <Units label>
µM

>  <Numeric result>
3.47

$$$$
>  <Compound>
O=C1C(NCCc2ccc(O)c(O)c2)=CC(=O)c2ncccc21

>  <Measurement type>
TGI

>  <Units label>
µM

>  <Numeric result>
65.3

$$$$

Input: Report TGI for CCOC(=O)C(CO)c1nc2c([nH]c1=O)c(=O)n(C)c(=O)n2C (centres undefined) please.
Output: 60.8
